Source: the kinase profiling compilation of Christmann-Franck et al. (2016)

Experimental target: CIT (human) (UniProt O14578)
Sequence (O14578 whole entry, looked up): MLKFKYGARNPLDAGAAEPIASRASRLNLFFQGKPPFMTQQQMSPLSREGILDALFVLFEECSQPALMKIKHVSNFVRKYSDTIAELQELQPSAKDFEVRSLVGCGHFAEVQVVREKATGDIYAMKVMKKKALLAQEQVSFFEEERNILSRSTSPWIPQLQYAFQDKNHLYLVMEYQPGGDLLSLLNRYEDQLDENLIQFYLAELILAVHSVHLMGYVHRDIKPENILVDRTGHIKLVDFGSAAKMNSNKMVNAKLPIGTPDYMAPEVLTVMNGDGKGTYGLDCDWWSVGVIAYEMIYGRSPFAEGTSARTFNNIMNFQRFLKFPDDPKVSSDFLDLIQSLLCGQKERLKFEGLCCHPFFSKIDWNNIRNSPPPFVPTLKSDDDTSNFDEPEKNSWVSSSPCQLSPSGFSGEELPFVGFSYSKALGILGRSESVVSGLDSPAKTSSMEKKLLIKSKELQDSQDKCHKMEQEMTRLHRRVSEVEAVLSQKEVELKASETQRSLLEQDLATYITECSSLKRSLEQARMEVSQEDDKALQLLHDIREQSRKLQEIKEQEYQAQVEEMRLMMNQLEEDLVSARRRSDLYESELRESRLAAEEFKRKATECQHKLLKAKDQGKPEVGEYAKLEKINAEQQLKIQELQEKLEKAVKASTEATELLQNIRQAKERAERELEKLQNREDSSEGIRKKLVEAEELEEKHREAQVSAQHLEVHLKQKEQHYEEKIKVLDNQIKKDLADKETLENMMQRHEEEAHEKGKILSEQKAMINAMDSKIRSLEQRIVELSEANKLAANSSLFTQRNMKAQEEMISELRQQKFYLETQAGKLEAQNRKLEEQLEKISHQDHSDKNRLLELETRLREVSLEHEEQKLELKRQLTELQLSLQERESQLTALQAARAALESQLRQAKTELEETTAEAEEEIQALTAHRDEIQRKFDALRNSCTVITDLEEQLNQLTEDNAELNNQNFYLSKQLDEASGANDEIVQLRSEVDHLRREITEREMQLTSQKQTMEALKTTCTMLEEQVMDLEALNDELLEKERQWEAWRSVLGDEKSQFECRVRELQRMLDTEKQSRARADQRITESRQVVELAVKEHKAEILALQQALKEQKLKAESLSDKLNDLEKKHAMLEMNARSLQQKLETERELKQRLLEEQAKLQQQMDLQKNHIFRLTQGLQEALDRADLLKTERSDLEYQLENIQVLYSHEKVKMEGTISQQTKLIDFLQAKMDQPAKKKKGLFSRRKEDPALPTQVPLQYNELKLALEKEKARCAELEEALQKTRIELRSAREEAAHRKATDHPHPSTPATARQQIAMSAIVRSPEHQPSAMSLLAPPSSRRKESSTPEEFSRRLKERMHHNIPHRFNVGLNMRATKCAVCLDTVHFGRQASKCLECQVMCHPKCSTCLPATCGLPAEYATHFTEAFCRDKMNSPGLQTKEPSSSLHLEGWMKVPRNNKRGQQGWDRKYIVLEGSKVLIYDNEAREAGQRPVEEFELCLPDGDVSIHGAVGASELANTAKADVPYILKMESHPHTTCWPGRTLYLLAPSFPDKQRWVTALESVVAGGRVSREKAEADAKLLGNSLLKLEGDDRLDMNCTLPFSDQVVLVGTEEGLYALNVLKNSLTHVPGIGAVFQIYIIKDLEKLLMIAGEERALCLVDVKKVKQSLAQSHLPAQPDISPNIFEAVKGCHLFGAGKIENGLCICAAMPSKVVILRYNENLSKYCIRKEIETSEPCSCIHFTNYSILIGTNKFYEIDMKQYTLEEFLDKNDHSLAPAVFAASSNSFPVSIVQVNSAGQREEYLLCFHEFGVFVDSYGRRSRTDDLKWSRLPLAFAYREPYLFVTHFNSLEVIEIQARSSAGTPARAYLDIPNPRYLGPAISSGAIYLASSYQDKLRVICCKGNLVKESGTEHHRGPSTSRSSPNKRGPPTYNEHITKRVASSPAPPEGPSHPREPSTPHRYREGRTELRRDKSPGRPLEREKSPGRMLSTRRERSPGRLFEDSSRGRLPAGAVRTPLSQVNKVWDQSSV
Test details: Caliper, Mobility shift assay off-chip
Measurement conditions: compound 0.02 µM
Measured property: inhibition (%)

1. CNC(=O)c1ccccc1Sc1ccc2c(/C=C/c3ccccn3)n[nH]c2c1 | -4.4
2. CNC(=O)c1cc(Oc2ccc(NC(=O)Nc3ccc(Cl)c(C(F)(F)F)c3)cc2)ccn1 | -4.9
3. COc1cc2c(Oc3ccc4[nH]c(C)cc4c3F)ncnc2cc1OCCCN1CCCC1 | -3
4. Cc1ccc(Nc2nccc(N(C)c3ccc4c(C)n(C)nc4c3)n2)cc1S(N)(=O)=O | -2.3

###

Experimental target: TAB1 (human) (UniProt Q15750)
Sequence (Q15750 whole entry, looked up): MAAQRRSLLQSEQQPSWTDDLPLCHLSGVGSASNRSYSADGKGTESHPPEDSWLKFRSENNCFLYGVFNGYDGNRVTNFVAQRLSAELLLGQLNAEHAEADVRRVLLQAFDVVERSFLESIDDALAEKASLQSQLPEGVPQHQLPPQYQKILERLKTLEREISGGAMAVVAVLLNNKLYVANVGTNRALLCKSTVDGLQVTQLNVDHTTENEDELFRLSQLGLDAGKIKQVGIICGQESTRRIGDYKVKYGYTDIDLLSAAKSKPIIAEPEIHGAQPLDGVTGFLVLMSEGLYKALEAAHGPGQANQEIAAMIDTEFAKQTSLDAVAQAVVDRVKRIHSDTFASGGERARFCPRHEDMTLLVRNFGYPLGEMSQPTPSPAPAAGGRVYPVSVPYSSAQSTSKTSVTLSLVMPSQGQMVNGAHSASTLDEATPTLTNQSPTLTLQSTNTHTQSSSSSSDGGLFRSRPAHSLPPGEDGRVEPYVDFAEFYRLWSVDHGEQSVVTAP
Test details: Caliper, Mobility shift assay off-chip
Measurement conditions: compound 0.02 µM
Items are presented alongside their recorded inhibition.
Measured property: inhibition (%)

1) CNC(=O)c1cc(Oc2ccc(NC(=O)Nc3ccc(Cl)c(C(F)(F)F)c3)cc2)ccn1 | 4.8
2) CNC(=O)c1ccccc1Sc1ccc2c(/C=C/c3ccccn3)n[nH]c2c1 | 1.1
3) Cc1ccc(Nc2nccc(N(C)c3ccc4c(C)n(C)nc4c3)n2)cc1S(N)(=O)=O | 6.5
4) COc1cc2c(Oc3ccc4[nH]c(C)cc4c3F)ncnc2cc1OCCCN1CCCC1 | 5.3

###

Experimental target: STK4 (human) (UniProt Q13043)
Sequence (Q13043 whole entry, looked up): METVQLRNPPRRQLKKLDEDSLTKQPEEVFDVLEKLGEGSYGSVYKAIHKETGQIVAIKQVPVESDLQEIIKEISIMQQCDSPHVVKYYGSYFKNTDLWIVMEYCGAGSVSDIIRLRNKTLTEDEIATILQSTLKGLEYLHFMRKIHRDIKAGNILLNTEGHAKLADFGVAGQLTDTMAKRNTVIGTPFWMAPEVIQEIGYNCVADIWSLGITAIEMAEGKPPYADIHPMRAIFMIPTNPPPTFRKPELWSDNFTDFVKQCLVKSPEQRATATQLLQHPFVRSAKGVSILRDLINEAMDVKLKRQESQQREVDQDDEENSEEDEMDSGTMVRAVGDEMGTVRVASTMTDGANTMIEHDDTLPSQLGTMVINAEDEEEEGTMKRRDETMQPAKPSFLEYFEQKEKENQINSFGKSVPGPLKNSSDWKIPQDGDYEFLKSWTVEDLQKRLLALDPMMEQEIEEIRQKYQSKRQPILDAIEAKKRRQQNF
Test details: Caliper, Mobility shift assay off-chip
Measurement conditions: compound 0.02 µM
Measured property: inhibition (%)

1. CNC(=O)c1cc(Oc2ccc(NC(=O)Nc3ccc(Cl)c(C(F)(F)F)c3)cc2)ccn1 | -5.1
2. CNC(=O)c1ccccc1Sc1ccc2c(/C=C/c3ccccn3)n[nH]c2c1 | 2
3. COc1cc2c(Oc3ccc4[nH]c(C)cc4c3F)ncnc2cc1OCCCN1CCCC1 | -4.5
4. Cc1ccc(Nc2nccc(N(C)c3ccc4c(C)n(C)nc4c3)n2)cc1S(N)(=O)=O | -4.7

###

Experimental target: UniProtKB P14616
Sequence (P14616 whole entry, looked up): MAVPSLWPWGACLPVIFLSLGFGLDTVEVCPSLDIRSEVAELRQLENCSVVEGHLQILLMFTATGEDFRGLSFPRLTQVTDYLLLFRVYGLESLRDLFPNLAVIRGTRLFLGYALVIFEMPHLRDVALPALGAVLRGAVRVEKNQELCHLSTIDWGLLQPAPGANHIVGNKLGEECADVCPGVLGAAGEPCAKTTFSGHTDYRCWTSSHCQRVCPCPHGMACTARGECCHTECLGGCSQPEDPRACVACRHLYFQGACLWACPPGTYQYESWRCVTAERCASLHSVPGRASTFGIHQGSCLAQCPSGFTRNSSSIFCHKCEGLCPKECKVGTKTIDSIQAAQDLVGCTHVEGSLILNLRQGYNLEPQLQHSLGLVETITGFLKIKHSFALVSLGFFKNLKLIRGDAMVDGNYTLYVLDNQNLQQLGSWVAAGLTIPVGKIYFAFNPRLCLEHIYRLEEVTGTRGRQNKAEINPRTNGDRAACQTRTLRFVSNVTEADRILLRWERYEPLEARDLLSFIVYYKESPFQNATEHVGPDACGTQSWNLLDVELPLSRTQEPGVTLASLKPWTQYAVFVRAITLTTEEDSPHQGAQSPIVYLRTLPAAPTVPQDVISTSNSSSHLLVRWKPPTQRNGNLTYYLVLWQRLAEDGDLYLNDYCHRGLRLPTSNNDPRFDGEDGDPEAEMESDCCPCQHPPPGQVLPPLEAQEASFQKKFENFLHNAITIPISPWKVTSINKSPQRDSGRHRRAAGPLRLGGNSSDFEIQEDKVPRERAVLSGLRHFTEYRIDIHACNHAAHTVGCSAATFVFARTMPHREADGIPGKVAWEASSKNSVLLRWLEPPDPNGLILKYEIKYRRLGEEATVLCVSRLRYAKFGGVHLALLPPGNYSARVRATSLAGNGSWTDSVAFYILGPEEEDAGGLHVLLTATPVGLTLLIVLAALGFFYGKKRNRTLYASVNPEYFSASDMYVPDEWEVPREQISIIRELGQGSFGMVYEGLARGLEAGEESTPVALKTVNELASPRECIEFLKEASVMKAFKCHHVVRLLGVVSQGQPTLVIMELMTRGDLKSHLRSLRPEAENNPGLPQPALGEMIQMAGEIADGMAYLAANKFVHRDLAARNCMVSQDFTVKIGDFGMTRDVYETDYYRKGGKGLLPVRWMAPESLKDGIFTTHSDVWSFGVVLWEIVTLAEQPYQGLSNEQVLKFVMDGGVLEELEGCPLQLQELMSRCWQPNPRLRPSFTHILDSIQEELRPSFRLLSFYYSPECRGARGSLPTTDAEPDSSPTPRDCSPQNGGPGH
Test details: Caliper, Mobility shift assay off-chip
Measurement conditions: compound 0.02 µM
Measured property: inhibition (%)

1) COc1cc2c(Oc3ccc4[nH]c(C)cc4c3F)ncnc2cc1OCCCN1CCCC1 | -0.3
2) CNC(=O)c1cc(Oc2ccc(NC(=O)Nc3ccc(Cl)c(C(F)(F)F)c3)cc2)ccn1 | -6.9
3) CNC(=O)c1ccccc1Sc1ccc2c(/C=C/c3ccccn3)n[nH]c2c1 | -8.3
4) Cc1ccc(Nc2nccc(N(C)c3ccc4c(C)n(C)nc4c3)n2)cc1S(N)(=O)=O | 0.1

###

Experimental target: MAP2K2 (human) (UniProt P36507)
Sequence (P36507 whole entry, looked up): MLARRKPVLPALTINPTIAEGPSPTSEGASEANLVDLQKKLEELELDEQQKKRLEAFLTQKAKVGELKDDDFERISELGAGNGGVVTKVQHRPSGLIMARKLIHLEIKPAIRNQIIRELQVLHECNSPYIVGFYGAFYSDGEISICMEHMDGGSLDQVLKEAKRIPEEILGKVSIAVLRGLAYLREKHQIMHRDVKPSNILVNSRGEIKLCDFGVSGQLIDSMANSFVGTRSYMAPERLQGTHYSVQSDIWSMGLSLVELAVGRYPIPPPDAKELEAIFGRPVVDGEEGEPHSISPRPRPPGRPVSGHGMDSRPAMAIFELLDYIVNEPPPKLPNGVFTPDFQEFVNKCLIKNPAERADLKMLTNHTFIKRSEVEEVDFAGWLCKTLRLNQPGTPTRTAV
Test details: ELISA
Measurement conditions: compound 0.02 µM
A collection of molecules and their measured inhibition
Measured property: inhibition (%)

1. COc1cc2c(Oc3ccc4[nH]c(C)cc4c3F)ncnc2cc1OCCCN1CCCC1 | -4.9
2. CNC(=O)c1cc(Oc2ccc(NC(=O)Nc3ccc(Cl)c(C(F)(F)F)c3)cc2)ccn1 | -1.8
3. Cc1ccc(Nc2nccc(N(C)c3ccc4c(C)n(C)nc4c3)n2)cc1S(N)(=O)=O | -7.4
4. CNC(=O)c1ccccc1Sc1ccc2c(/C=C/c3ccccn3)n[nH]c2c1 | 0.1

###

Catalogue of molecules with associated inhibition
Experimental target: EPHA2 (human)
Test details: Caliper, Mobility shift assay off-chip
Measurement conditions: compound 0.2 µM
Measured property: inhibition

1. CCN(CC)CCNC(=O)c1c(C)[nH]c(/C=C2\C(=O)Nc3ccc(F)cc32)c1C | -1.9%
2. COc1cc2c(Oc3ccc4[nH]c(C)cc4c3F)ncnc2cc1OCCCN1CCCC1 | -3.5%
3. Cc1ccc(Nc2nccc(N(C)c3ccc4c(C)n(C)nc4c3)n2)cc1S(N)(=O)=O | -2.8%
4. CNC(=O)c1cc(Oc2ccc(NC(=O)Nc3ccc(Cl)c(C(F)(F)F)c3)cc2)ccn1 | 9.8%
